These entries and their values trace back to patent US20210253725A1.

# target: T1, CD134 expressed on the cell surface of HT1080_OX40 cells (human, UniProt P43489 29-277)
# T1 construct: whole, on cells; species not restated for the HT1080 transfectant
# T1 sequence (looked up): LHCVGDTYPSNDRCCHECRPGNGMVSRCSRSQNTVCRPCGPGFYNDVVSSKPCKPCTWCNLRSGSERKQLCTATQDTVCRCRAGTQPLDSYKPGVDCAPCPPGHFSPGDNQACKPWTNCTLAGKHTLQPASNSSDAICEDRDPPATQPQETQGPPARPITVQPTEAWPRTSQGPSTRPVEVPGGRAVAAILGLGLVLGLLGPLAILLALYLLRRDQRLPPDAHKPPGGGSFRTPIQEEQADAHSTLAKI
# experiment: HT1080_OX40 cells, imaging; note: test concentration or dose not given here
# label = met if Cellular binding assay [RFU] < 500 RFU else not met

I'd appreciate it if you could check whether P018.S.12.A.B05 (antibody, V domains shown, V regions on human Ig constant parts; also called AB134_59) VH: QQQLVESGGGLVKPGASLTLTCKASGFFFSGSYYMCWVRQAPGKGLEWIACIYTGSDDDTNYASWAKGRFTISKTSSTTVTLQMTSLTAADTATYFCARRNYDTDWGGDLWGPGTLVTVSS VL: AVVLTQTPASVEAAVGGTVTIKCQASQSIGSSLAWYQQKPGQRPKLLIYYASNLASGVSSRFKGSGSGTQFTLTISDLESADAATYYCQCTYTSSDYLDAFGGGTEVVVK has Cellular binding assay [RFU] smaller than 500 RFU. not met

is_below(Cellular binding assay [RFU], 500 RFU) for P018.S.11.A.E02 (antibody, V domains shown, V regions on human Ig constant parts; also called AB134_33) VH: QEQLEESGGDLVKPEGSLTLTCTASGFSFNVDYYMCWVRQAPGKGLEWIACIYVGSEGSTYYASWAKGRFTISKTSSTTVTLQMTSLTAADTATYFCARHYAGYAGYNYATDYYFTLWGPGTLVTVSS VL: DIVMTQTPSSVSAGVGGTVTINCQASQSVTNFLSWYQQKPGQPPKLLIYGASTLASGVPSRFKGSGSGTEFTLTISGMKAEDVATYYCQSGYYSATFGAGTKVEIK ? not met

Strictly below 500 RFU in Cellular binding assay [RFU]? P018.S.02.A.H03 (antibody, V domains shown, V regions on human Ig constant parts; also called AB134_3) VH: QSLEESGGRLVTPGGSLTLTCTVSGIDLSSYGMGWVRQAPGKGLEWIGTISYGGSTFYANWVKGRFTISKTSTTVDLKVTSLTTEDAATYFCAREVPYWSLWGQGTLVTVSS VL: AYDMTQTPASVAAAVGGTVTIKCQASQSIGSDLSWYQQKRGQPPKLLIYDASTLASGVPSRFKGSGSGTEFTLTISDVQSADAATVYCQQDYSYRNVDNTFGGGTEVVVK met

I'd appreciate it if you could check whether P018.S.12.A.D03 (antibody, V domains shown, V regions on human Ig constant parts; also called AB134_68) VH: QERLVESGGGLVKPGASLTLTCTASGFSFSSGYDMCWVRQAPGKGLEWVGCIDTGTGTIYYASWAPGRFTISETSSTMVTLQMTSLTAADTATYFCARSVGGYDYAIDLWGPGTLVTVSS VL: AYDMTQTPASVEVPVGGTVTIKCQASQNIGSRLVWYQQKPGQSPKFLIYYASNLASGVSSRFKGSGSGTQFTLTISDVQSDNAATYYCQQTYSYSDVDDTFGGGTEVVVK has Cellular binding assay [RFU] smaller than 500 RFU. not met

Answer whether the binder P018.S.12.A.D02 (antibody, V domains shown, V regions on human Ig constant parts; also called AB134_67) VH: QSVEESGGRLVTPGTPLTLTCTVSGFSLRHYAMSWVRQAPGKGLEWIGVITTTANTYYASWAKGRFTVSKASSTTVDLKIMSPTIEDTATYFCARAMGLYDSYVDVDDTHDAFDPWGPGTLVTVSS VL: AQVLTQTASPVSAAVGGTVTINCQSSQSVYNSHVLSWYQQKPGQPPKLLIYDASNLASGVPSRFSASGSGTQFTLTISGVQSDDAATYYCLGGYDDDADNIFAFGGGTEVVVA has Cellular binding assay [RFU] strictly less than 500 RFU met
